Experiment: Antioxidant activity against H2O2-induced oxidative stress in chicken RBC assessed as superoxide dismutase activity by measuring pyrogallol oxidization per mg protein pre-incubated at 25 uM followed by H2O2 addition by UV spectroscopy (reference value: 11.32 +/- 1.96 pyrogallol oxidized/min/mg of protein)
Type: functional, Gallus gallus, Erythrocyte

compound: COc1ccc2c(c1OC)CCN1C(=O)CCCC21 (stereo not given)
Activity / µmol/min: 11.76

compound: Cc1ccc2c(c1)CCN1C(=O)c3ccccc3C21O (stereo not given)
Activity / µmol/min: 11.51

compound: COc1ccc2c(c1)CCN1C(=O)c3ccccc3C21O (stereo not given)
Activity / µmol/min: 12.65

compound: COc1ccc(OC)c2c1CCN1C(=O)c3ccccc3C21O (stereo not given)
Activity / µmol/min: 16.32

compound: COc1cc2c(cc1OC)C1(O)C3C4c5ccccc5C(c5ccccc54)C3C(=O)N1CC2 (stereo not given)
Activity / µmol/min: 15.86

compound: COc1ccc2c(c1OC)CCN1C(=O)c3ccccc3C21O (stereo not given)
Activity / µmol/min: 13.19

compound: COc1cc2c(cc1OC)C1(O)c3ccccc3C(=O)N1CC2 (stereo not given)
Activity / µmol/min: 17.34

compound: COc1cc2c(c(OC)c1)C1CCC(=O)N1CC2 (stereo not given)
Activity / µmol/min: 17.23

compound: COc1cc2c(cc1O)C1(O)c3ccccc3C(=O)N1CC2 (stereo not given)
Activity / µmol/min: 18.616

compound: O=C1c2ccccc2C2(O)c3ccc(Br)cc3CCN12 (stereo not given)
Activity / µmol/min: 12.8667
